meta.source: ChEMBL document CHEMBL1130953

- Test system: Staphylococcus aureus
- Measurement protocol: Compound was tested for antibacterial activity against Staphylococcus aureus 011UC4 using standard broth microdilution assay.
- Assay type: functional
Define the label as true (1) when MIC is strictly less than 1 µg/mL and as false (0) in all remaining cases.

Q: Check if MIC falls below 1 µg/mL for CC[C@H]1OC(=O)[C@H](C)[C@@H](O[C@H]2C[C@@](C)(OC)[C@@H](O)[C@H](C)O2)[C@H](C)[C@@H](O[C@@H]2O[C@H](C)C[C@H](N(C)C)[C@H]2O)[C@](C)(O)C[C@@H](C)CN(C)[C@H](C)[C@@H](O)[C@]1(C)O .
A: true (1)

###

- System: Staphylococcus aureus
- Measurement protocol: Compound was tested for antibacterial activity against Staphylococcus aureus 011UC4 using standard broth microdilution assay.
- Type: functional
Readout kind: MIC (µg/mL)
Express your answer in µg/mL, writing the number without its unit.

Solved cases below.
Compound: CC[C@H]1OC(=O)[C@H](C)[C@@H](O[C@H]2C[C@@](C)(OC)[C@@H](O)[C@H](C)O2)[C@H](C)[C@@H](O[C@@H]2O[C@H](C)C[C@H](N(C)C)[C@H]2O)[C@](C)(OC)C[C@@H](C)C2=N[C@H](C)[C@@H](O2)[C@]1(C)O
Experimental target: Staphylococcus aureus
Unit info: µg/mL
MIC: 20
//
Compound: CC[C@H]1OC(=O)[C@H](C)[C@@H](O[C@H]2C[C@@](C)(OC)[C@@H](O)[C@H](C)O2)[C@H](C)[C@@H](O[C@@H]2O[C@H](C)C[C@H](N(C)C)[C@H]2O)[C@](C)(OC)C[C@@H](C)CN(C)[C@H](C)[C@@H](O)[C@]1(C)O
Experimental target: Staphylococcus aureus
Unit info: µg/mL
MIC: 1.2
//
Compound: CC[C@H]1OC(=O)[C@H](C)[C@@H](O[C@H]2C[C@@](C)(OC)[C@@H](O)[C@H](C)O2)[C@H](C)[C@@H](OC2O[C@H](C)C[C@H](N(C)C)[C@H]2O)[C@](C)(OC)C[C@@H](C)C(=O)N[C@H](C)[C@@H](O)[C@]1(C)O (stereo not given in full)
Experimental target: Staphylococcus aureus
Unit info: µg/mL
MIC: 1.2
//
Compound: CC[C@H]1OC(=O)[C@H](C)C(=O)[C@H](C)[C@@H](OC2O[C@H](C)C[C@H](N(C)C)[C@H]2O)[C@](C)(OC)C[C@@H](C)C(=O)[C@H](C)[C@H]2N(CCCCn3cnc(-c4cccnc4)c3)C(=O)O[C@]12C (stereo not given in full)
Experimental target: Staphylococcus aureus
Unit info: µg/mL
MIC: 0.04

Then there is this compound:
Q: Assign MIC to the following record: CC[C@H]1OC(=O)[C@H](C)C(=O)[C@H](C)[C@@H](O[C@@H]2O[C@H](C)C[C@H](N(C)C)[C@H]2O)[C@](C)(OC)C[C@@H](C)CN(C)[C@H](C)[C@@H](O)[C@]1(C)O
A: 40
